Where these numbers come from: patent US8466186B2

- testTarget: recombinant human mPGES-1 (Homo sapiens, UniProt O14684)
- Construct: made in house; host or cells: Rosetta E. coli (membrane/microsome fraction)
- Sequence (O14684 1-152): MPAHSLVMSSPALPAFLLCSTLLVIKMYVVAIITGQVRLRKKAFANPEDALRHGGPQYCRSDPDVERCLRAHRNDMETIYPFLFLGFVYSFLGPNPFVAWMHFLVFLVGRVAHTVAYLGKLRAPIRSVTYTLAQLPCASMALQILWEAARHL
- testDescription: Assay A: mPGES-1 enzyme assay (HTRF detection of PGE2)
- Assay type: biochemical
- testContext: biological assay A; microsomes from E. coli expressing recombinant human mPGES-1; read-out: mPGES-1 inhibitory effect IC50
Listed below: IC50 values for each entry.

{"columns": ["compound", "testTarget", "IC50"],
 "data": [
  ["Cn1c(Nc2cc(CNC(=O)C(C)(N)C(F)(F)F)ccc2C(F)(F)F)nc2cc(Cl)c(N3CCC(C(F)(F)F)CC3)cc21 (stereo not shown) [Example 108]", "recombinant human mPGES-1 (Homo sapiens, UniProt O14684)", "0.0058 µM"],
  ["Cn1c(Nc2cc(CNC(=O)C3(C(F)(F)F)CC3)ccc2Cl)nc2cc(Cl)c(N3CCC(C)(C)CC3)cc21 [Example 78]", "recombinant human mPGES-1 (Homo sapiens, UniProt O14684)", "0.0017 µM"],
  ["Cn1c(Nc2cc(CNC(=O)c3c(F)cccc3Cl)ccc2C(F)(F)F)nc2cc(Cl)c(N3CCC(C(F)(F)F)CC3)cc21 [Example 103]", "recombinant human mPGES-1 (Homo sapiens, UniProt O14684)", "0.002 µM"],
  ["COC1CCN(c2cc3c(cc2Cl)nc(Nc2cc(CNC(=O)C4(C(F)(F)F)CC4)ccc2Cl)n3C)CC1 [Example 77]", "recombinant human mPGES-1 (Homo sapiens, UniProt O14684)", "0.01 µM"],
  ["CC(=O)N1CCN(c2cc3[nH]c(Nc4cc(CNC(=O)C5(C(F)(F)F)CC5)ccc4Cl)nc3cc2Cl)CC1 [Example 74]", "recombinant human mPGES-1 (Homo sapiens, UniProt O14684)", "0.144 µM"],
  ["CN1CCN(c2cc3[nH]c(Nc4cc(CNC(=O)C5(C(F)(F)F)CC5)ccc4Cl)nc3cc2Cl)CC1 [Example 129]", "recombinant human mPGES-1 (Homo sapiens, UniProt O14684)", "0.634 µM"],
  ["Cn1c(Nc2cc(CNC(=O)C3(O)CC3)ccc2C(F)(F)F)nc2cc(Cl)c(N3CCC(C(F)(F)F)CC3)cc21 [Example 107]", "recombinant human mPGES-1 (Homo sapiens, UniProt O14684)", "0.013 µM"]
]}
